Assay type: in vivo, mice
Cond: Plasma; Chronic BDPP
Readout: Tmax (min)

Here are 3 molecules together with their reported answers.
molecule="Oc1cc(O)c2c(c1)OC(c1ccc(O)c(O)c1)C(O)C2 (centres unmarked) [C, Catechin]" value=30
molecule="COc1cc(/C=C/C(=O)O)ccc1O [FA, Ferulic acid]" value=30
molecule="Oc1ccc(/C=C/c2cc(O)cc(O)c2)cc1 [RSV, t-Resveratrol (−)]" value=30

I = Oc1cc(O)c2c(c1)O[C@H](c1ccc(O)c(O)c1)[C@H](O)[C@H]2c1c(O)cc(O)c2c1O[C@H](c1ccc(O)c(O)c1)[C@H](O)C2 [PAC-B2, Proanthocyanidin dimer B2]
II = COc1cc(CCC(=O)O)ccc1O [DHFA, Dihyroferulic acid]
Rank I against II by their Tmax values and give the higher one. Write the label of whichever entry you select.
I

* * *

Format: in vivo, mice
Cond: Plasma; Chronic BDPP; mice, bolus by oral gavage, 0.25-24 h; n = 6 +/- SEM
Readout: Cmax (ng/mL)

Here are 3 molecules together with their reported answers.
molecule="Oc1ccc(/C=C/c2cc(O)cc(O)c2)cc1 [RSV, t-Resveratrol (−)]" unit_spec=ng/mL value=11628.0
molecule="COc1cc(/C=C/C(=O)O)ccc1O [FA, Ferulic acid]" unit_spec=ng/mL value=28.9
molecule="COc1cc(CCC(=O)O)ccc1O [DHFA, Dihyroferulic acid]" unit_spec=ng/mL value=2.5

A = Oc1cc(O)c2c(c1)O[C@H](c1ccc(O)c(O)c1)[C@H](O)[C@H]2c1c(O)cc(O)c2c1O[C@H](c1ccc(O)c(O)c1)[C@H](O)C2 [PAC-B2, Proanthocyanidin dimer B2]
B = Oc1cc(O)c2c(c1)OC(c1ccc(O)c(O)c1)C(O)C2 (centres unmarked) [C, Catechin]
Could you tell me which of A and B has the lower Cmax reading? Write the label of whichever entry you select.
A
(A: 2.0 ng/mL, B: 55.5 ng/mL)

* * *

Format: in vivo, mice
Cond: male, mouse, plasma, po, Tmax, Chronic Synbiotic
Readout: Tmax (min)

Here are 3 molecules together with their reported answers.
molecule="COc1cc(C(=O)O)ccc1O [VA, Vanillic acid]" value=18
molecule="O=C(O)Cc1ccc(O)c(O)c1 [3,4-diHPAA, 3,4-Dihydroxyphenylacetic acid]" value=30
molecule="O=C(O)c1ccc(O)c(O)c1 [3,4-diHBA, 3,4-Dihydroxybenzoic acid]" value=18

P = O=c1c(O)c(-c2ccc(O)c(O)c2)oc2cc(O)cc(O)c12 [QUER, Quercetin]
Q = O=C(O)c1cccc(O)c1 [3-HBA, 3-Hydroxybenzoic acid]
Rank P against Q by their Tmax values and give the higher one. Write the label of whichever entry you select.
Q
(Q: 60 min, P: 18 min)

a = Oc1cc(O)c2c(c1)O[C@H](c1ccc(O)c(O)c1)[C@H](O)C2 [EC, Epicatechin]
b = COc1c(O)cc(C(=O)O)cc1O [4-MeGA, 4-O-Methylgallic acid]
Could you tell me which of a and b has the lower Tmax reading? Write the label of whichever entry you select.
a

1 = COc1cc(-c2oc3cc(O)cc(O)c3c(=O)c2O)ccc1O [3′-MeQUER, Isorhamnetin]
2 = O=C(O)Cc1cccc(O)c1 [3-HPAA, 3-Hydroxyphenylacetic acid]
Rank 1 against 2 by their Tmax values and give the higher one. Write the label of whichever entry you select.
1
(1: 30 min, 2: 18 min)

A = O=C(O)CCc1ccc(O)cc1 [4-HPPA, 3-(4-Hydroxyphenyl)propionic acid]
B = O=C1CCC(Cc2ccc(O)c(O)c2)O1 (stereo not drawn) [DHVL]
C = O=C(O)c1ccc(O)cc1 [4-HBA, 4-Hydroxybenzoic acid]
D = O=c1c(O)c(-c2ccc(O)cc2)oc2cc(O)cc(O)c12 [KAMF, Kaempferol]
E = O=C(O)CNC(=O)c1ccc(O)cc1 [4-HHA, 4-Hydroxyhippuric acid]
Given 5 molecules, produce a descending ranking by Tmax. Put the labels in the requested order and write them down.
C, E, B, D, A

* * *

Assay type: in vivo, mice
Cond: Plasma; Chronic Synbiotic
Readout: Tmax (min)

Here are 2 molecules together with their reported answers.
molecule="Oc1cc(O)c2c(c1)O[C@H](c1ccc(O)c(O)c1)[C@H](O)[C@H]2c1c(O)cc(O)c2c1O[C@H](c1ccc(O)c(O)c1)[C@H](O)C2 [PAC-B2, Proanthocyanidin dimer B2]" unit_spec=min value=30
molecule="Oc1ccc(/C=C/c2cc(O)cc(O)c2)cc1 [RSV, t-Resveratrol (−)]" unit_spec=min value=30

1 = COc1cc(CCC(=O)O)ccc1O [DHFA, Dihyroferulic acid]
2 = COc1cc(/C=C/C(=O)O)ccc1O [FA, Ferulic acid]
3 = Oc1cc(O)c2c(c1)OC(c1ccc(O)c(O)c1)C(O)C2 (centres unmarked) [C, Catechin]
Ascending sort, Tmax. Put the labels in the requested order and write them down.
1, 2, 3

* * *

Assay type: in vivo, mice
Cond: male, mouse, plasma, po, AUC, Chronic Synbiotic, over 24 h
Readout: AUC (ng·h/mL)

Here are 3 molecules together with their reported answers.
molecule="COc1c(O)cc(C(=O)O)cc1O [4-MeGA, 4-O-Methylgallic acid]" value=162
molecule="O=C(O)CNC(=O)c1ccccc1 [HA, Hippuric acid]" value=1320
molecule="O=C(O)c1ccc(O)cc1 [4-HBA, 4-Hydroxybenzoic acid]" value=1280

a = COc1cc(C(=O)O)ccc1O [VA, Vanillic acid]
b = O=C(O)Cc1ccc(O)c(O)c1 [3,4-diHPAA, 3,4-Dihydroxyphenylacetic acid]
Rank a against b by their AUC values and give the higher one. Write the label of whichever entry you select.
b
(b: 344 ng·h/mL, a: 118 ng·h/mL)

* * *

Assay type: in vivo, mice
Cond: male, mouse, brain, po, Tmax, Chronic BDPP
Readout: Tmax (min)

compound=COc1cc(C(=O)O)ccc1O unit_spec=min value=18
compound=O=c1c(O)c(-c2ccc(O)c(O)c2)oc2cc(O)cc(O)c12 unit_spec=min value=18
compound="O=C(O)c1ccc(O)c(O)c1 [3,4-diHBA, 3,4-Dihydroxybenzoic acid]" unit_spec=min value=18
compound=COc1cc(-c2oc3cc(O)cc(O)c3c(=O)c2O)ccc1O unit_spec=min value=18
compound=O=C(O)Cc1ccccc1 unit_spec=min value=30
compound=O=c1c(O)c(-c2ccc(O)cc2)oc2cc(O)cc(O)c12 unit_spec=min value=18

* * *

Type: in vivo, mice
Cond: male, mouse, plasma, po, AUC, Chronic BDPP, over 24 h
Readout: AUC (ng·h/mL)

1 = COc1c(O)cc(C(=O)O)cc1O
2 = O=C(O)Cc1ccc(O)c(O)c1 [3,4-diHPAA, 3,4-Dihydroxyphenylacetic acid]
Could you tell me which of 1 and 2 has the lower AUC reading? Write the label of whichever entry you select.
1

1 = O=C(O)CCc1ccc(O)cc1 [4-HPPA, 3-(4-Hydroxyphenyl)propionic acid]
2 = O=C(O)CNC(=O)c1ccc(O)cc1 [4-HHA, 4-Hydroxyhippuric acid]
Could you tell me which of 1 and 2 has the lower AUC reading? Write the label of whichever entry you select.
2
(2: 1.7 ng·h/mL, 1: 406 ng·h/mL)

* * *

Format: in vivo, mice
Cond: male, mouse, brain, po, AUC, Chronic BDPP, over 24 h
Readout: AUC (µg·h/mL)

Here are 2 compounds together with their reported answers.
compound="O=c1c(O)c(-c2ccc(O)c(O)c2)oc2cc(O)cc(O)c12 [QUER, Quercetin]" readout=AUC value=0.142
compound="O=C(O)c1ccc(O)c(O)c1 [3,4-diHBA, 3,4-Dihydroxybenzoic acid]" readout=AUC value=0.0881

P = COc1cc(-c2oc3cc(O)cc(O)c3c(=O)c2O)ccc1O [3′-MeQUER, Isorhamnetin]
Q = O=C(O)Cc1ccc(O)cc1 [4-HPAA, 4-Hydroxyphenylacetic acid]
R = O=c1c(O)c(-c2ccc(O)cc2)oc2cc(O)cc(O)c12 [KAMF, Kaempferol]
Ascending sort, AUC. Put the labels in the requested order and write them down.
P, R, Q

A = O=C(O)c1cccc(O)c1 [3-HBA, 3-Hydroxybenzoic acid]
B = COc1cc(C(=O)O)ccc1O [VA, Vanillic acid]
Could you tell me which of A and B has the lower AUC reading? Write the label of whichever entry you select.
A
(A: 0.0673 µg·h/mL, B: 0.169 µg·h/mL)

A = COc1c(O)cc(C(=O)O)cc1O [4-MeGA, 4-O-Methylgallic acid]
B = O=C(O)Cc1cccc(O)c1 [3-HPAA, 3-Hydroxyphenylacetic acid]
Could you tell me which of A and B has the lower AUC reading? Write the label of whichever entry you select.
A
(A: 0.0033 µg·h/mL, B: 0.029 µg·h/mL)

* * *

Assay type: in vivo, mice
Cond: male, mouse, plasma, po, AUC, Chronic Synbiotic, over 24 h
Readout: AUC (µg·h/mL)

a = O=C(O)Cc1ccc(O)cc1 [4-HPAA, 4-Hydroxyphenylacetic acid]
b = O=c1c(O)c(-c2ccc(O)c(O)c2)oc2cc(O)cc(O)c12 [QUER, Quercetin]
c = O=C(O)CNC(=O)c1ccc(O)cc1 [4-HHA, 4-Hydroxyhippuric acid]
d = O=C(O)c1cc(O)c(O)c(O)c1 [GA, Gallic acid]
Rank descending by AUC. Put the labels in the requested order and write them down.
a, d, b, c
(a: 4.46 µg·h/mL, d: 2.39 µg·h/mL, b: 0.583 µg·h/mL, c: 0.0059 µg·h/mL)

A = COc1cc(-c2oc3cc(O)cc(O)c3c(=O)c2O)ccc1O [3′-MeQUER, Isorhamnetin]
B = O=C(O)CCc1ccc(O)cc1 [4-HPPA, 3-(4-Hydroxyphenyl)propionic acid]
Could you tell me which of A and B has the lower AUC reading? Write the label of whichever entry you select.
A

Data provenance is paper PMC7986984.
